- assayProtocol: Fluorescence quantum yield, Atto 633 as reference
- Type: physicochemical
- measurementConditions: Atto 633 as reference (Φfl = 64% in aqueous buffer)
parameter: Φfl in water (%)

entrysmiles=CN(CCC(=O)O)C(=O)c1c(F)c(F)c(F)c(F)c1C1=c2cc3c4c(c2Oc2c1cc1c5c2CCCN5C(C)(C)C=C1CS(=O)(=O)O)CCC[N+]=4C(C)(C)C=C3CS(=O)(=O)[O-] uom=% testresult=80
entrysmiles=CC1=CC(C)(C)N2CCCc3c4c(cc1c32)C(c1c(F)c(F)c(F)c(F)c1C(=O)N(C)CCC(=O)O)=c1cc2c3c(c1O4)CCC[N+]=3C(C)(C)C=C2C uom=% testresult=53
entrysmiles=[2H]C1=C(C([2H])([2H])S(=O)(=O)O)c2cc3c(c4c2N(CCC4)C1(C([2H])([2H])[2H])C([2H])([2H])[2H])Oc1c2c4c(cc1=C3c1c(F)c(F)c(F)c(F)c1C(=O)N(C)CCC(=O)O)C(C([2H])([2H])S(=O)(=O)[O-])=C([2H])C(C([2H])([2H])[2H])(C([2H])([2H])[2H])[N+]=4CCC2 uom=% testresult=78
entrysmiles=CC1=CC(C)(C)N2CCCc3c4c(cc1c32)C(c1c(F)c(F)c(F)c(F)c1C(=O)[O-])=c1cc2c3c(c1O4)CCC[N+]=3C(C)(C)C=C2C uom=% testresult=63
entrysmiles=CC1=CC(C)(C)N2CCCc3c4c(cc1c32)C(c1c(F)c(F)c(F)c(F)c1C(=O)N(C)CCC(=O)OC(C)(C)C)=c1cc2c3c(c1O4)CCC[N+]=3C(C)(C)C=C2C uom=% testresult=61
entrysmiles=COC(=O)CCN(C)C(=O)c1c(F)c(F)c(F)c(F)c1C1=c2cc3c4c(c2Oc2c1cc1c5c2CCCN5C(C)(C)C=C1C)CCC[N+]=4C(C)(C)C=C3C uom=% testresult=62

* * *

- assayProtocol: Solubility and polarity of the dyes
parameter: solubility in water or aqueous buffers

compound="CC1=CC(C)(C)N2CCCc3c4c(cc1c32)C(c1c(F)c(F)c(F)c(F)c1C(=O)N(C)CCC(=O)OC(C)(C)C)=c1cc2c3c(c1O4)CCC[N+]=3C(C)(C)C=C2C [Compound 5-tBu]" testresult="insoluble in water"
compound="COC(=O)CCN(C)C(=O)c1c(F)c(F)c(F)c(F)c1C1=c2cc3c4c(c2Oc2c1cc1c5c2CCCN5C(C)(C)C=C1C)CCC[N+]=4C(C)(C)C=C3C [Compound 5-Me]" testresult="insoluble in water"
compound="CN(CCC(=O)ON1C(=O)CCC1=O)C(=O)c1c(F)c(F)c(F)c(F)c1C1=c2cc3c4c(c2Oc2c1cc1c5c2CCCN5C(C)(C)C=C1CS(=O)(=O)O)CCC[N+]=4C(C)(C)C=C3CS(=O)(=O)[O-] [Compound 9]" testresult="soluble in water"
compound="CN(CCC(=O)NCCN1C(=O)C=CC1=O)C(=O)c1c(F)c(F)c(F)c(F)c1C1=c2cc3c4c(c2Oc2c1cc1c5c2CCCN5C(C)(C)C=C1CS(=O)(=O)O)CCC[N+]=4C(C)(C)C=C3CS(=O)(=O)O [Compound 11]" testresult="soluble in water"

* * *

- assayProtocol: Solubility and polarity of the dyes
parameter: Solubility (solvents)

Guide cases for Solubility (solvents), answers given:
compound="CC1=CC(C)(C)N2CCCc3c4c(cc1c32)C(c1c(F)c(F)c(F)c(F)c1C(=O)N(C)CCC(=O)OC(C)(C)C)=c1cc2c3c(c1O4)CCC[N+]=3C(C)(C)C=C2C [Compound 5-tBu]" testresult="DMF, THF, CHCl3;"
compound="CC1=CC(C)(C)N2CCCc3c4c(cc1c32)C(c1c(F)c(F)c(F)c(F)c1C(=O)[O-])=c1cc2c3c(c1O4)CCC[N+]=3C(C)(C)C=C2C [Compound 4]" testresult="CHCl3, THF"
compound="CC1=CC(C)(C)N2CCCc3c4c(cc1c32)C(c1c(F)c(F)c(F)c(F)c1C(=O)N(C)CCC(=O)O)=c1cc2c3c(c1O4)CCC[N+]=3C(C)(C)C=C2C [Compound 5-H]" testresult="DMF, THF, CHCl3;"
compound="COC(=O)c1c(F)c(F)c(F)c(F)c1C1=c2cc3c4c(c2Oc2c1cc1c5c2CCCN5C(C)(C)C=C1C)CCC[N+]=4C(C)(C)C=C3 [Compound 7]" testresult="CHCl3, THF"

We next turn to a different compound, shown below.
## Task Item under review: COC(=O)CCN(C)C(=O)c1c(F)c(F)c(F)c(F)c1C1=c2cc3c4c(c2Oc2c1cc1c5c2CCCN5C(C)(C)C=C1C)CCC[N+]=4C(C)(C)C=C3C [Compound 5-Me] . Reported Solubility (solvents)?
## Result DMF, THF, CHCl3;

* * *

- assayProtocol: UV-visible absorption and fluorescence spectra of the dyes of the invention
- Assay type: physicochemical
- measurementConditions: solvent MeOH
parameter: λmax (abs.) (nm)

entrysmiles=COC(=O)c1c(F)c(F)c(F)c(F)c1C1=c2cc3c4c(c2Oc2c1cc1c5c2CCCN5C(C)(C)C=C1C)CCC[N+]=4C(C)(C)C=C3 testresult=632
entrysmiles=CC1=CC(C)(C)N2CCCc3c4c(cc1c32)C(c1c(F)c(F)c(F)c(F)c1C(=O)N(C)CCC(=O)O)=c1cc2c3c(c1O4)CCC[N+]=3C(C)(C)C=C2C testresult=638
entrysmiles=COC(=O)CCN(C)C(=O)c1c(F)c(F)c(F)c(F)c1C1=c2cc3c4c(c2Oc2c1cc1c5c2CCCN5C(C)(C)C=C1C)CCC[N+]=4C(C)(C)C=C3C testresult=638
entrysmiles=CC1=CC(C)(C)N2CCCc3c4c(cc1c32)C(c1c(F)c(F)c(F)c(F)c1C(=O)N(C)CCC(=O)OC(C)(C)C)=c1cc2c3c(c1O4)CCC[N+]=3C(C)(C)C=C2C testresult=638
entrysmiles=CC1=CC(C)(C)N2CCCc3c4c(cc1c32)C(c1c(F)c(F)c(F)c(F)c1C(=O)[O-])=c1cc2c3c(c1O4)CCC[N+]=3C(C)(C)C=C2C testresult=616

* * *

- assayProtocol: UV-visible absorption and fluorescence spectra of the dyes of the invention
- Assay type: physicochemical
- measurementConditions: solvent MeOH
parameter: λmax (fl.) (nm)

entrysmiles=CC1=CC(C)(C)N2CCCc3c4c(cc1c32)C(c1c(F)c(F)c(F)c(F)c1C(=O)[O-])=c1cc2c3c(c1O4)CCC[N+]=3C(C)(C)C=C2C parameter="λmax (fl.)" testresult=641
entrysmiles=CC1=CC(C)(C)N2CCCc3c4c(cc1c32)C(c1c(F)c(F)c(F)c(F)c1C(=O)N(C)CCC(=O)OC(C)(C)C)=c1cc2c3c(c1O4)CCC[N+]=3C(C)(C)C=C2C parameter="λmax (fl.)" testresult=661
entrysmiles=COC(=O)CCN(C)C(=O)c1c(F)c(F)c(F)c(F)c1C1=c2cc3c4c(c2Oc2c1cc1c5c2CCCN5C(C)(C)C=C1C)CCC[N+]=4C(C)(C)C=C3C parameter="λmax (fl.)" testresult=661.5
entrysmiles=COC(=O)c1c(F)c(F)c(F)c(F)c1C1=c2cc3c4c(c2Oc2c1cc1c5c2CCCN5C(C)(C)C=C1C)CCC[N+]=4C(C)(C)C=C3 parameter="λmax (fl.)" testresult=655.5
entrysmiles=CC1=CC(C)(C)N2CCCc3c4c(cc1c32)C(c1c(F)c(F)c(F)c(F)c1C(=O)N(C)CCC(=O)O)=c1cc2c3c(c1O4)CCC[N+]=3C(C)(C)C=C2C parameter="λmax (fl.)" testresult=661.5

Where do these numbers come from? They come from patent US8580579B2.
